Notes on C. felis Mortality (%) 24 h obtained with Ctenocephalides felis.
Give bare numbers, in %.

Please review the following examples before continuing.
>  <MOLECULE>
CCCN(N=C(C)c1cc(Cl)ccc1NS(=O)(=O)C(F)(F)F)c1ccc(C)cc1 [Compound 73]

>  <MEASURE>
C. felis Mortality (%) 24 h

>  <READOUT_UNIT>
%

>  <OBS_VALUE>
100

$$$$
>  <MOLECULE>
CC(=NN(C)c1ccc(C(F)(F)F)cc1)c1cc(Cl)ccc1NS(=O)(=O)C(F)(F)F [Compound 65]

>  <MEASURE>
C. felis Mortality (%) 24 h

>  <READOUT_UNIT>
%

>  <OBS_VALUE>
100

$$$$
>  <MOLECULE>
CC(=NN1CCCCC1)c1cc(Cl)ccc1NS(=O)(=O)C(F)(F)F [Compound 21]

>  <MEASURE>
C. felis Mortality (%) 24 h

>  <READOUT_UNIT>
%

>  <OBS_VALUE>
100

$$$$
>  <MOLECULE>
CC(=NN(C)C)c1ccccc1NS(=O)(=O)C(F)(F)F [Compound 124]

>  <MEASURE>
C. felis Mortality (%) 24 h

>  <READOUT_UNIT>
%

>  <OBS_VALUE>
94

$$$$
>  <MOLECULE>
CC(=NN(C)C(=O)c1ccc(Cl)cc1Cl)c1cc(Cl)ccc1NS(=O)(=O)C(F)(F)F [Compound 62]

>  <MEASURE>
C. felis Mortality (%) 24 h

>  <READOUT_UNIT>
%

>  <OBS_VALUE>
100

$$$$

List reported C. felis Mortality (%) 24 h for each of these molecules:
1. CC(=NN(C)c1cccc(Cl)c1Cl)c1cc(Cl)ccc1NS(=O)(=O)C(F)(F)F [Compound 100]
2. CCN(N=C(C)c1cc(Cl)ccc1NS(=O)(=O)C(F)(F)F)c1cccc(Cl)c1 [Compound 38]

[100, 100]

List reported C. felis Mortality (%) 24 h for each of these molecules:
1. CC(=NN(c1cccc(Cl)c1Cl)C(C)C)c1cc(Cl)ccc1NS(=O)(=O)C(F)(F)F [Compound 66]
2. CCCN(N=C(C)c1cc(Cl)ccc1NS(=O)(=O)C(F)(F)F)c1c(Cl)cccc1Cl [Compound 103]
3. CCOC(=O)N(CC)N=C(C)c1cc(Cl)ccc1NS(=O)(=O)C(F)(F)F [Compound 125]
4. CCC(=NN(CC)C(=O)OC)c1cc(Cl)ccc1NS(=O)(=O)C(F)(F)F [Compound 140]

100
100
100
100

List reported C. felis Mortality (%) 24 h for each of these molecules:
1. CCN(N=C(C)c1cc(Cl)ccc1NS(=O)(=O)C(F)(F)F)c1cccc(F)c1 [Compound 76]
2. CCCN(N=C(C)c1cc(Cl)ccc1NS(=O)(=O)C(F)(F)F)c1ccc(Br)cc1 [Compound 53]
3. CCN(N=C(C)c1cc(Cl)ccc1NS(=O)(=O)C(F)(F)F)c1ccc(Cl)c(Cl)c1 [Compound 71]
4. CC(=NN(C)c1ncccn1)c1cc(Cl)ccc1NS(=O)(=O)C(F)(F)F [Compound 190]
5. CCOC(=O)N(C)N=C(C)c1cc(Cl)ccc1NS(=O)(=O)C(F)(F)F [Compound 126]
6. CCCN(N=C(C)c1cc(Cl)ccc1NS(=O)(=O)C(F)(F)F)c1ccc(C(F)(F)F)cc1 [Compound 41]
7. CCC(=NNC(=O)c1ccc(Cl)cc1)c1cc(Cl)ccc1NS(=O)(=O)C(F)(F)F [Compound 60]

1. 100
2. 100
3. 100
4. 15
5. 97
6. 94
7. 100

---

tested on: Ctenocephalides felis; assay: Ctenocephalides felis adulticide assay: C. felis dose response (LC50)
I'd be grateful if you could share measured C. felis LC50 for these entries.
Answers are plain numbers, in ppm.

>  <MOLECULE>
CCC(=NNC(=O)c1ccc(Cl)cc1)c1cc(Cl)ccc1NS(=O)(=O)C(F)(F)F [Compound 60]

>  <READOUT_UNIT>
ppm

>  <C. felis LC50>
4.1

$$$$
>  <MOLECULE>
CC(=NN(C)c1cc(Cl)cc(Cl)c1)c1cc(Cl)ccc1NS(=O)(=O)C(F)(F)F [Compound 99]

>  <READOUT_UNIT>
ppm

>  <C. felis LC50>
1.9

$$$$
>  <MOLECULE>
CCN(N=C(C)c1cc(Cl)ccc1NS(=O)(=O)C(F)(F)F)c1ccc(F)cc1 [Compound 39]

>  <READOUT_UNIT>
ppm

>  <C. felis LC50>
0.14

$$$$
>  <MOLECULE>
CC(=NN(C)c1ccc(Cl)cc1)c1cc(Cl)ccc1NS(=O)(=O)C(F)(F)F [Compound 105]

>  <READOUT_UNIT>
ppm

>  <C. felis LC50>
3.0

$$$$
>  <MOLECULE>
CCC(=NN(C)C(=O)c1ccc(Cl)cc1)c1cc(Cl)ccc1NS(=O)(=O)C(F)(F)F [Compound 81]

>  <READOUT_UNIT>
ppm

>  <C. felis LC50>
2.2

$$$$

List reported C. felis LC50 for each of these molecules:
1. CC(=NN(C)c1ccc(Cl)c(Cl)c1)c1cc(Cl)ccc1NS(=O)(=O)C(F)(F)F [Compound 96]
2. CCN(N=C(C)c1cc(Cl)ccc1NS(=O)(=O)C(F)(F)F)c1cccc(F)c1 [Compound 76]
3. CCN(N=C(C)c1cc(Cl)ccc1NS(=O)(=O)C(F)(F)F)c1cc(Cl)cc(Cl)c1 [Compound 70]

1. 2.0
2. 0.42
3. 1.8

---

tested on: Ctenocephalides felis; conditions: 24 h; data from laboratory 1
Note to self: class labels come from recorded C. felis Mortality (%) 24 h, ranges listed here: class 0 (below 20%), class 1 (20% to below 50%), class 2 (50% or more)

Worked set:
>  <COMPOUND>
CCN(N=C(C)c1cc(Cl)ccc1NS(=O)(=O)C(F)(F)F)c1cccc(Cl)c1Cl [Compound 69]

>  <GROUP>
class 2

$$$$
>  <COMPOUND>
CC(=NNC(=O)OC(C)(C)C)c1cc(Cl)ccc1NS(=O)(=O)C(F)(F)F [Compound 86]

>  <GROUP>
class 1

$$$$
>  <COMPOUND>
CC(=NN(C)c1ccc(Cl)cc1Cl)c1cc(Cl)ccc1N(C)S(=O)(=O)C(F)(F)F [Compound 29]

>  <GROUP>
class 0

$$$$
>  <COMPOUND>
C/C(=N\N1C(=O)NC(C)(C)C1=O)c1cc(Cl)ccc1NS(=O)(=O)C(F)(F)F [Compound 187]

>  <GROUP>
class 0

$$$$
>  <COMPOUND>
CC(=NN(c1ccc(C)cc1)C(C)C)c1cc(Cl)ccc1NS(=O)(=O)C(F)(F)F [Compound 102]

>  <GROUP>
class 2

$$$$

Band assignment needed for CC(=NN(C)c1ccccc1)c1ccc(NS(=O)(=O)C(F)(F)F)cc1 [Compound 164] please.
class 2

Band assignment needed for O=S(=O)(Nc1ccc(Cl)cc1C1=NN(c2ccccc2F)CC1)C(F)(F)F [Compound 228] please.
class 2

Band assignment needed for CC(=NN(c1cc(Cl)ccc1Cl)C(C)C)c1cc(Cl)ccc1NS(=O)(=O)C(F)(F)F [Compound 144] please.
class 1

---

Notes on C. felis Mortality (%) 24 h obtained with Ctenocephalides felis.
One number for each entry, in %.

>  <MOLECULE>
CC(=NN(C)c1ccc(Cl)cc1)c1cc(Cl)ccc1NS(=O)(=O)C(F)(F)F [Compound 105]

>  <OBS_VALUE>
100

$$$$
>  <MOLECULE>
CCC(=NN1CCCCC1)c1cc(Cl)ccc1NS(=O)(=O)C(F)(F)F [Compound 130]

>  <OBS_VALUE>
91

$$$$

Would you kindly look at the next entry?
Entry C/C(=N\N(CCC#N)C(=O)c1ccccc1)c1cc(Cl)ccc1NS(=O)(=O)C(F)(F)F [Compound 222] — recorded C. felis Mortality (%) 24 h = 89

---

I'd be grateful if you could share measured R. sanguineus Mortality (%) 24 h for these entries.
tested on: Rhipicephalus sanguineus; experiment: Rapid screening protocol for topical application on brown dog ticks (% mortality); details: data from laboratory 1

Please review the following examples before continuing.
>  <SMILES_NOTATION>
CC(=NN(C)c1ccccc1)c1cc(Cl)ccc1NS(=O)(=O)C(F)(F)F

>  <R. sanguineus Mortality (%) 24 h>
88%

$$$$
>  <SMILES_NOTATION>
CC(=NN1CCCCC1)c1cc(Cl)ccc1NS(=O)(=O)C(F)(F)F

>  <R. sanguineus Mortality (%) 24 h>
78^A %

$$$$
>  <SMILES_NOTATION>
CC(=NN1CCOC1=O)c1cc(Cl)ccc1NS(=O)(=O)C(F)(F)F

>  <R. sanguineus Mortality (%) 24 h>
95^A %

$$$$
>  <SMILES_NOTATION>
CC(=NN1CCOCC1)c1cc(Cl)ccc1NS(=O)(=O)C(F)(F)F

>  <R. sanguineus Mortality (%) 24 h>
95^A %

$$$$
>  <SMILES_NOTATION>
CC(=NN(Cc1ccccc1)c1ccccc1)c1cc(Cl)ccc1NS(=O)(=O)C(F)(F)F

>  <R. sanguineus Mortality (%) 24 h>
33^A %

$$$$

List reported R. sanguineus Mortality (%) 24 h for each of these compounds:
1. CCC(=NN(Cc1ccccc1)c1ccccc1)c1cc(Cl)ccc1NS(=O)(=O)C(F)(F)F
2. CCCN(N=C(C)c1cc(Cl)ccc1NS(=O)(=O)C(F)(F)F)c1ccccc1

["28^A %", "75^A %"]
